Biological target: Wnt-responsive promoter (TCF/LEF)
Assay: Wnt-dependent luciferase reporter assay
Format: cell-based, murine
Where a SMILES comes first, the peptide text is derived from it.
readout.name: EC50

# compound, system.under.test, EC50
data = [
    ("CC[C@H](C)[C@@H]1NC(=O)[C@H](CC(C)C)NC(=O)[C@H](Cc2ccccc2)NC(=O)[C@H](Cc2c[nH]c3ccccc23)NC(=O)[C@H](CCSC)NC(=O)[C@@H](N)CCCCNC(=O)C[C@@H](C(=O)O)NC(=O)[C@H](Cc2c[nH]c3ccccc23)NC(=O)[C@H](Cc2ccccc2)NC(=O)[C@H](CS)NC1=O [compound 170] (HELM PEPTIDE1{K.M.W.F.L.I.C.F.W.D}$PEPTIDE1,PEPTIDE1,1:R3-10:R3$$$V2.0)", "Wnt-responsive promoter (TCF/LEF)", "15 to 22.5 µM"),
    ("CC[C@H](C)[C@H](NC(=O)[C@H](CC(C)C)NC(=O)[C@H](Cc1ccccc1)NC(=O)[C@H](Cc1c[nH]c2ccccc12)NC(=O)[C@@H](NC(=O)[C@H](CCCNC(=N)N)NC(=O)[C@H](CO)NC(=O)[C@@H](N)CCSC)[C@@H](C)O)C(=O)N[C@@H](CO)C(=O)N[C@@H](Cc1ccccc1)C(=O)N[C@@H](Cc1c[nH]c2ccccc12)C(N)=O [compound 76] (H-MSRTWFLISFW-NH2)", "Wnt-responsive promoter (TCF/LEF)", "> 30 µM"),
]

Continue with the next compound.
IN: Which measured EC50 value corresponds to CC[C@H](C)[C@H](NC(=O)[C@H](CC(C)C)NC(=O)[C@H](Cc1ccccc1)NC(=O)[C@H](Cc1c[nH]c2ccccc12)NC(=O)[C@@H](NC(=O)[C@H](CCCNC(=N)N)NC(=O)[C@H](CO)NC(=O)[C@@H](N)CCSC)C(C)C)C(=O)N[C@@H](CO)C(=O)N[C@@H](Cc1ccccc1)C(=O)N[C@@H](Cc1c[nH]c2ccccc12)C(=O)NCC(=O)O [compound 64] (H-MSRVWFLISFWG-OH) ?
OUT: 7.5 to 15 µM

###

Listed here are molecules together with their documented β-Cat FP Hill slope.
Molecular target: β-catenin (Homo sapiens, UniProt P35222)
Sequence (P35222 whole entry): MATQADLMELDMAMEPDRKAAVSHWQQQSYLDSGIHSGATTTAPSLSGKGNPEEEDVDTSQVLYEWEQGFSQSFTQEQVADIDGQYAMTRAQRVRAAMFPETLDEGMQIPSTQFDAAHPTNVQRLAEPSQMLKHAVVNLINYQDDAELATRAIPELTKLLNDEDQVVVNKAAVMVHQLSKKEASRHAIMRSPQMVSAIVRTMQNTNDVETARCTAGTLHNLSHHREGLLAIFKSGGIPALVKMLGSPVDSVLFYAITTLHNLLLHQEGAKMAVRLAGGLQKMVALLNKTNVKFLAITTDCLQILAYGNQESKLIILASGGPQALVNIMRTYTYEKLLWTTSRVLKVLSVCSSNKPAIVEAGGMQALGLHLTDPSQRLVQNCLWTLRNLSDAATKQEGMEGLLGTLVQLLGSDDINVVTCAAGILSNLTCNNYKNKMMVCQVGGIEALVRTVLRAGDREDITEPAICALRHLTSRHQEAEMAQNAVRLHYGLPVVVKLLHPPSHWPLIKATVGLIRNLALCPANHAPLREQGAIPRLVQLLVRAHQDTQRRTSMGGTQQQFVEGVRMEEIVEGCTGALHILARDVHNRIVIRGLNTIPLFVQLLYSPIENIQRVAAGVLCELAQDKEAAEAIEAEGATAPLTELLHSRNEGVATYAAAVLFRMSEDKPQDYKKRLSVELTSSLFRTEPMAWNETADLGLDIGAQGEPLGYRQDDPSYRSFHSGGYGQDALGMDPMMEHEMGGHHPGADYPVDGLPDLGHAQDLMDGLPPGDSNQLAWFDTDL
Assay: KD50 measurement using competitive fluorescence polarization (FP) with labelled TCF4
Type: binding
Conditions: fluorescence polarization, β-catenin
Where a SMILES comes first, the peptide text is derived from it.

# molecule, β-Cat FP Hill slope
measured = [
    ("CC[C@H](C)[C@H](NC(=O)[C@H](CC(C)C)NC(=O)[C@H](Cc1ccccc1)NC(=O)[C@H](Cc1c[nH]c2ccccc12)NC(=O)[C@@H](N)CCSC)C(=O)N[C@@H](CO)C(=O)N[C@@H](C)C(=O)N[C@@H](Cc1c[nH]c2ccccc12)C(=O)NCC(=O)O [compound 9] (H-MWFLISAWG-OH)", 0.51),
    ("CC[C@H](C)[C@@H]1NC(=O)[C@H](CC(C)C)NC(=O)[C@H](Cc2ccccc2)NC(=O)[C@H](Cc2c[nH]c3ccccc23)NC(=O)[C@@H](N)CCCCNC(=O)CNC(=O)C[C@@H](C(=O)O)NC(=O)[C@H](Cc2c[nH]c3ccccc23)NC(=O)[C@H](C)NC(=O)[C@H](CS)NC1=O [compound 207] (HELM PEPTIDE1{K.W.F.L.I.C.A.W.[O=C(O)[C@H](CC(=O)[*:2])N[*:1]].G}$PEPTIDE1,PEPTIDE1,1:R3-10:R2$$$V2.0)", 0.7),
    ("CC[C@H](C)[C@H](NC(=O)[C@H](CC(C)C)NC(=O)[C@H](Cc1ccccc1)NC(=O)[C@H](Cc1c[nH]c2ccccc12)NC(=O)[C@H](CCSC)NC(C)=O)C(=O)N[C@@H](CS)C(=O)N[C@@H](Cc1ccccc1)C(=O)N[C@@H](Cc1c[nH]c2ccccc12)C(=O)NCC(=O)O [compound 198] (Ac-MWFLICFWG-OH)", 2.18),
    ("CC[C@H](C)[C@H](NC(=O)[C@H](CC(C)C)NC(=O)[C@H](Cc1ccccc1)NC(=O)[C@H](Cc1c[nH]c2ccccc12)NC(=O)[C@@H](N)CCSC)C(=O)N[C@@H](C)C(=O)N[C@@H](Cc1ccccc1)C(=O)N[C@@H](Cc1c[nH]c2ccccc12)C(=O)NCC(=O)O [compound 10] (H-MWFLIAFWG-OH)", 0.73),
    ("CC[C@H](C)[C@@H]1NC(=O)[C@H](CC(C)C)NC(=O)[C@H](Cc2ccccc2)NC(=O)[C@H](Cc2c[nH]c3ccccc23)NC(=O)[C@H](CCSC)NC(=O)[C@@H](NC(C)=O)CCCCNC(=O)CC[C@@H](C(=O)O)NC(=O)[C@H](Cc2c[nH]c3ccccc23)NC(=O)[C@H](Cc2ccccc2)NC(=O)[C@H](CS)NC1=O [compound 186] (HELM PEPTIDE1{[ac].K.M.W.F.L.I.C.F.W.E}$PEPTIDE1,PEPTIDE1,2:R3-11:R3$$$V2.0)", 1.07),
]

Continue with the next molecule.
IN: Which measured β-Cat FP Hill slope value corresponds to CC[C@H](C)[C@@H]1NC(=O)[C@H](CC(C)C)NC(=O)[C@H](Cc2ccccc2)NC(=O)[C@H](Cc2c[nH]c3ccccc23)NC(=O)[C@@H](N)CCCCNC(=O)CC[C@@H](C(=O)O)NC(=O)[C@H](Cc2c[nH]c3ccccc23)NC(=O)[C@H](Cc2ccccc2)NC(=O)[C@H](CS)NC1=O [compound 179] (HELM PEPTIDE1{K.W.F.L.I.C.F.W.E}$PEPTIDE1,PEPTIDE1,1:R3-9:R3$$$V2.0) ?
OUT: 1.01

###

Listed here are compounds together with their documented viability.
Conditions: % Viability non-Wnt responsive cells
Where a SMILES comes first, the peptide text is derived from it.
// note: answer is a bare numeric in %

# compound, viability / %
data = [
    ("CCC[C@H](N)C(=O)N[C@@H](Cc1c[nH]c2ccccc12)C(=O)N[C@@H](Cc1ccccc1)C(=O)N[C@@H](CC(C)C)C(=O)N[C@H](C(=O)N[C@@H](CS)C(=O)N[C@@H](Cc1ccccc1)C(=O)N[C@@H](Cc1c[nH]c2ccccc12)C(=O)NCC(=O)O)[C@@H](C)CC [compound 141] (HELM PEPTIDE1{[Nva].W.F.L.I.C.F.W.G}$$$$V2.0)", 100),
    ("CC[C@H](C)[C@@H]1NC(=O)[C@H](CC(C)C)NC(=O)[C@H](Cc2ccccc2)NC(=O)[C@H](Cc2c[nH]c3ccccc23)NC(=O)[C@@H](N)CCCCNC(=O)C[C@@H](C(=O)O)NC(=O)[C@H](Cc2c[nH]c3ccccc23)NC(=O)[C@H](Cc2ccccc2)NC(=O)[C@H](CS)NC1=O [compound 172] (HELM PEPTIDE1{K.W.F.L.I.C.F.W.D}$PEPTIDE1,PEPTIDE1,1:R3-9:R3$$$V2.0)", 90.8),
    ("CC[C@H](C)[C@H](NC(=O)[C@H](CC(C)C)NC(=O)[C@H](Cc1ccccc1)NC(=O)[C@H](Cc1c[nH]c2ccccc12)NC)C(=O)N[C@@H](CO)C(=O)N[C@@H](Cc1ccccc1)C(=O)N[C@@H](Cc1c[nH]c2ccccc12)C(N)=O [compound 102] (HELM PEPTIDE1{[meW].F.L.I.S.F.W.[am]}$$$$V2.0)", 101),
]

IN: Which measured viability value corresponds to CC[C@H](C)[C@H](NC(=O)[C@H](CC(C)C)NC(=O)[C@H](Cc1ccccc1)NC(=O)[C@H](Cc1c[nH]c2ccccc12)NC(=O)[C@@H](N)CCSC)C(=O)N[C@@H](CS)C(=O)N[C@@H](C)C(=O)N[C@@H](Cc1c[nH]c2ccccc12)C(=O)NCC(=O)O [compound 211] (H-MWFLICAWG-OH) ?
OUT: 93.9

IN: Which measured viability value corresponds to CC[C@H](C)[C@H](NC(=O)[C@H](CC(C)C)NC(=O)[C@H](Cc1ccccc1)NC(=O)[C@H](C)NC(=O)[C@@H](N)CCSC)C(=O)N[C@@H](CO)C(=O)N[C@@H](Cc1ccccc1)C(=O)N[C@@H](Cc1c[nH]c2ccccc12)C(=O)NCC(=O)O [compound 210] (H-MAFLISFWG-OH) ?
OUT: 96.4

IN: Which measured viability value corresponds to CC[C@H](C)[C@@H]1NC(=O)[C@H](CC(C)C)NC(=O)[C@H](Cc2ccccc2)NC(=O)[C@H](Cc2c[nH]c3ccccc23)NC(=O)[C@@H](N)CCCCNC(=O)CC[C@@H](C(=O)O)NC(=O)[C@H](Cc2c[nH]c3ccccc23)NC(=O)[C@H](Cc2ccccc2)NC(=O)[C@H](C)NC1=O [compound 201] (HELM PEPTIDE1{K.W.F.L.I.A.F.W.E}$PEPTIDE1,PEPTIDE1,1:R3-9:R3$$$V2.0) ?
OUT: 60.1
